Parameter cell viability: see the listing below.
System: MARIMO
Assay: cell viability relative to vehicle control; higher = less cytotoxic;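 also: after 48 h exposure read by CellTiter-Glo luminescence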
Details: 10 µM; SRSF2 genotype: SRSF2 P95H/wt
parameter: cell viability (%)

INSERT INTO measurements (molecule, test_target, observed_value) VALUES
  ('Cc1ccc(Cl)c(Nc2ccccc2C(=O)O)c1Cl [Meclofenamate sodium]', 'MARIMO', 97.2),
  ('Cc1c(F)cc(C(=O)NC2CC2)cc1-c1ccc(C(=O)NCC(C)(C)C)cn1 [Losmapimod]', 'MARIMO', 95.7),
  ('Nc1c(CC(=O)O)cccc1C(=O)c1ccc(Br)cc1 [Bromfenac Sodium]', 'MARIMO', 105),
  ('O=C(O[C@@H]1Cc2c(O)cc(O)cc2O[C@H]1c1cc(O)c(O)c(O)c1)c1cc(O)c(O)c(O)c1 [Gallocatechin gallate]', 'MARIMO', 91.1),
  ('CC(C)NC(=O)COc1cccc(-c2nc(Nc3ccc4[nH]ncc4c3)c3ccccc3n2)c1', 'MARIMO', 68.6),
  ('Cc1ccccc1CN1C(=O)C2=C(CCN(Cc3ccccc3)C2)N2CCN=C12', 'MARIMO', 46.4),
  ('COc1ccc([C@@H]2CC(=O)c3c(O)cc(O[C@@H]4O[C@H](CO)[C@@H](O)[C@H](O)[C@H]4O[C@@H]4O[C@@H](C)[C@H](O)[C@@H](O)[C@H]4O)cc3O2)cc1O [Neohesperidin]', 'MARIMO', 97.2),
  ('CN(C/C=C/C#CC(C)(C)C)Cc1cccc2ccccc12 [Terbinafine]', 'MARIMO', 96.2);

----------
System: MOLM14
Assay: cell viability relative to vehicle control; higher = less cytotoxic
Settings: 10 µM; SRSF2 genotype: SRSF2 P95H/wt
parameter: cell viability (%)

INSERT INTO assay_data (molecule, test_target, unit_text, observed_value) VALUES
  ('FC(F)(F)c1ccc(/C=C/c2nc(COc3ccc(CCCCn4ccnn4)cc3)co2)cc1 [Mubritinib (TAK 165)]', 'MOLM14', '%', 70.1),
  ('COc1ccc([C@@H]2CC(=O)c3c(O)cc(O[C@@H]4O[C@H](CO)[C@@H](O)[C@H](O)[C@H]4O[C@@H]4O[C@@H](C)[C@H](O)[C@@H](O)[C@H]4O)cc3O2)cc1O [Neohesperidin]', 'MOLM14', '%', 104),
  ('O=C(/C=C/c1ccc(O)cc1)c1ccc(O)cc1O [Isoliquiritigenin]', 'MOLM14', '%', 53.5),
  ('CCC(=O)NS(=O)(=O)c1ccc(-c2c(-c3ccccc3)noc2C)cc1 [Parecoxib Sodium]', 'MOLM14', '%', 93.4);

----------
Reported cell viability values for the following molecules.
System: MOLM14
Test: cell viability relative to vehicle control; higher = less cytotoxic
Settings: 10 µM; SRSF2 genotype: SRSF2 P95H/wt
parameter: cell viability (%)

INSERT INTO assay_data (molecule, observed_value) VALUES
  ('CC(NC(=O)Cc1cc(F)cc(F)c1)C(=O)NC1C(=O)N(C)c2ccccc2-c2ccccc21 (stereo not drawn)', 105),
  ('Oc1ccc2c(c1)OC[C@]1(O)Cc3cc(O)c(O)cc3[C@H]21 [Brazilin]', 40.4),
  ('NCCCC[C@@H]1NC(=O)[C@@H](Cc2ccccc2)NC(=O)[C@H](CC(=O)O)NC(=O)CNC(=O)[C@H](CCCN=C(N)N)NC1=O [Cyclo (-RGDfK)]', 98.5),
  ('CC(C)OC(=O)CCC/C=C\C[C@@H]1[C@@H](CC[C@@H](O)CCc2ccccc2)[C@H](O)C[C@@H]1O [Latanoprost]', 88),
  ('CN(C)CCCC1(c2ccc(F)cc2)OCc2cc(C#N)ccc21 (stereo not drawn) [Citalopram HBr]', 91.5),
  ('COc1cc(NC(=O)c2ccccn2)ccc1Cl', 99),
  ('Cc1cn(-c2cc(NC(=O)c3ccc(C)c(Nc4nccc(-c5cnccn5)n4)c3)cc(C(F)(F)F)c2)cn1 [Radotinib]', 104),
  ('CCCCCCCCCCCCCCCCCC[N+](C)(C)C [Trimethyloctadecylammonium bromide]', 0.73);
